These entries and their values trace back to patent US20230416232A1.

biological target: HER2 (A775_G776insYVMA) expressing Ba/F3 stable cell line (Homo sapiens, UniProt P04626, DUP772-775, cells depend on it); assay: Cellular proliferation (Alamar Blue) assay, HER2 (A775_G776insYVMA) Ba/F3; assay type: cell-based; settings: HER2 (A775_G776insYVMA) Ba/F3 cells; 72 hr; Alamar Blue; read-out: YVMA IC50
Sequence (P04626 with tags, fused parts or gaps DUP772-775): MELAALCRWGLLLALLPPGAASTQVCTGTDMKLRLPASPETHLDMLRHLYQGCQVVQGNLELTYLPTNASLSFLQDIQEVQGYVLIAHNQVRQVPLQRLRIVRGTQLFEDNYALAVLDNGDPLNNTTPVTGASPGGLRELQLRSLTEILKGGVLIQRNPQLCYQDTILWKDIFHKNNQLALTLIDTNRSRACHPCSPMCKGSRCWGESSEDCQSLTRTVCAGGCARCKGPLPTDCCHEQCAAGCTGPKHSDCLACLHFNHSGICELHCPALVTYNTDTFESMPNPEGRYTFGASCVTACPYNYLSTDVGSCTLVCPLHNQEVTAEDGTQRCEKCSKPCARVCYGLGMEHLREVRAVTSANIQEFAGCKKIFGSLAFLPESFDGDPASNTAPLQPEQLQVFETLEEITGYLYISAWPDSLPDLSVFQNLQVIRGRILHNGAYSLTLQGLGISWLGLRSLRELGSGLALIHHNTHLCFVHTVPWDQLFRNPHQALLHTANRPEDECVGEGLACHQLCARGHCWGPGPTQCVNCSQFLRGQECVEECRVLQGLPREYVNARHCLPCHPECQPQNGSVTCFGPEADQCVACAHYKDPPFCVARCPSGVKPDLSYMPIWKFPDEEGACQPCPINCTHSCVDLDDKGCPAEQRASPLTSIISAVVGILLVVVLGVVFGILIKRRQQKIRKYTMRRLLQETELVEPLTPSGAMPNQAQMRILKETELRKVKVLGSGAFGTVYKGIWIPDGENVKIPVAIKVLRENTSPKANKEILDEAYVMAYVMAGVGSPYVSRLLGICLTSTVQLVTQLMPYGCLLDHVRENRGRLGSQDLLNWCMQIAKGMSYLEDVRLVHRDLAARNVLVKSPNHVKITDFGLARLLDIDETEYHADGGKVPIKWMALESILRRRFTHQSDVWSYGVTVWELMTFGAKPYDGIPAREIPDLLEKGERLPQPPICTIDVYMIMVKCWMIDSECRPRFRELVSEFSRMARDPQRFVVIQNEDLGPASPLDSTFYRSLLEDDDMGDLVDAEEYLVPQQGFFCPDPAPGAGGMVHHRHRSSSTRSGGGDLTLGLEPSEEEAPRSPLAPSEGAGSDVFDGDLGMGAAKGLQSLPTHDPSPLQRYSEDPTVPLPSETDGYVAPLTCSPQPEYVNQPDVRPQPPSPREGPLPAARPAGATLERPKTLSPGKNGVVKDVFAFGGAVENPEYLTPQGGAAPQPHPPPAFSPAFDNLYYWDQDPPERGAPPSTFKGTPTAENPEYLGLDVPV
Items are presented alongside their recorded GI50.
Number only, in nM; omit the unit.

* C=CC(=O)Nc1ccc(F)c(Nc2nc(Nc3cnn(C4COC4)c3)ncc2-c2ccc(Cl)c(Cl)c2)c1 | 118
* C=CC(=O)Nc1ccc(F)c(Nc2nc(Nc3cnn(C)c3)ncc2-c2cc(F)cc(OC)c2)c1 | 112
* C=CC(=O)Nc1ccc(F)c(Nc2nc(Nc3cnn(C)c3)ncc2-c2cc(F)c(Br)c(Cl)c2)c1 | 66

Challenge: Provide GI50 value for the following molecule: C=CC(=O)Nc1ccc(F)c(Nc2nc(Nc3cnn(C)c3)ncc2-c2cc(F)c(N(C)C)c(F)c2)c1
Response given: 309

Challenge: Answer with the recorded GI50 for the molecule listed here: C=CC(=O)Nc1ccc(F)c(Nc2nc(Nc3cnn(C)c3)ncc2-c2cc(F)ccc2Cl)c1
Response given: 1070

Challenge: Return reported GI50. Input molecule: C=CC(=O)Nc1ccc(F)c(Nc2nc(Nc3cnn(C)c3)ncc2-c2cc(C)cc(F)c2)c1
Response given: 159

Challenge: Give the reported value of GI50 for this record: C=CC(=O)Nc1ccc(F)c(Nc2nc(Nc3cnn(C)c3)ncc2-c2ccc(N3CCCCCC3)c(F)c2)c1
Response given: 884

====

log10 of GI50 by entry:
target: EGFR (H773insNPH) expressing Ba/F3 stable cell line (Homo sapiens, UniProt P00533, DUP771-773, cells depend on it); experiment: Cellular proliferation (Alamar Blue) assay, EGFR (H773insNPH) Ba/F3; assay type: cell-based; conditions: 72 hr, read-out: NPH IC50
Sequence (P00533 with tags, fused parts or gaps DUP771-773): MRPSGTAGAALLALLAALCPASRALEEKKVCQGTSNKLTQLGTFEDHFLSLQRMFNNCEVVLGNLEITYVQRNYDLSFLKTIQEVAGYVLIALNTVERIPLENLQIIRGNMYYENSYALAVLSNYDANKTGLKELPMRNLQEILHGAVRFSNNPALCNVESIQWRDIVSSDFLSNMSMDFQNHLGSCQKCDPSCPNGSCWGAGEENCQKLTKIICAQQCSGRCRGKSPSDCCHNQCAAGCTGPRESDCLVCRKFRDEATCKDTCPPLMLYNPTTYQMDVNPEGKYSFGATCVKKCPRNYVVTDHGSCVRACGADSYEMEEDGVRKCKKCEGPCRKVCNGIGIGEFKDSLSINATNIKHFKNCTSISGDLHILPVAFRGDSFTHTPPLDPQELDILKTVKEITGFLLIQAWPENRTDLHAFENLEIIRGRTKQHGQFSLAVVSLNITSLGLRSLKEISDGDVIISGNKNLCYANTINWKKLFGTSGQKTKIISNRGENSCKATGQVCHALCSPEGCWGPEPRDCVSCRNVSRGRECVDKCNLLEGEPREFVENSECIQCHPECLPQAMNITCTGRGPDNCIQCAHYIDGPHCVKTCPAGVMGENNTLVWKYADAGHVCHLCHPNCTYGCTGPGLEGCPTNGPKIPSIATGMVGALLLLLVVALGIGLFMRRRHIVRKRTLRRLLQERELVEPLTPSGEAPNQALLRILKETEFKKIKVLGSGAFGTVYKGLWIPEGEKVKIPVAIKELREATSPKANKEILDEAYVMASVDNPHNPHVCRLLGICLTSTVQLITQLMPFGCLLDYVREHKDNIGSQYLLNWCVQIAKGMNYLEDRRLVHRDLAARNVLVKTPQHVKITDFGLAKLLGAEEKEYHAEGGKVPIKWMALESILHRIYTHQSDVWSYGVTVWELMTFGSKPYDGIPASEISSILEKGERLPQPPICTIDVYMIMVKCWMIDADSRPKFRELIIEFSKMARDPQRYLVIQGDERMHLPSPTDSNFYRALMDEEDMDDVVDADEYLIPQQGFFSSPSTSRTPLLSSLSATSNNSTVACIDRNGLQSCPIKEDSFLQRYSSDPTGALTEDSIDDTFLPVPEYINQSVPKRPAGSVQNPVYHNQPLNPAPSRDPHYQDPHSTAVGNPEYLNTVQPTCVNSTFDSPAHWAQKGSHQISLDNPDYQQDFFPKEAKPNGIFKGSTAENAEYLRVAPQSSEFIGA
Transform log10 | Measure GI50 | Unit µM

Reference set (2 entries):
- C=CC(=O)Nc1cccc(Nc2nc(Nc3cnn(C)c3)ncc2-c2ccc(N(C)C)c(F)c2)c1: -1.40
- C=CC(=O)Nc1ccc(F)c(Nc2nc(Nc3cnn(C)c3)ncc2-c2cc(Cl)cc(Cl)c2)c1: -0.80

Challenge: Output measured log10 of GI50 for this item: C=CC(=O)Nc1cccc(Nc2nc(Nc3cnn(C)c3)ncc2-c2cc(F)cc(Cl)c2)c1
Response given: -1.85

Challenge: Provide measured log10 of GI50 value, entry: C=CC(=O)Nc1cccc(Nc2nc(Nc3cnn(C)c3)ncc2-c2ccc(F)c(F)c2)c1
Response given: -1.00

Challenge: Answer with reported log10 of GI50 of C=CC(=O)Nc1cccc(Nc2nc(Nc3cnn(C)c3)ncc2-c2cc(F)cc(C(F)F)c2)c1
Response given: -1.62

Challenge: Answer with reported log10 of GI50 of C=CC(=O)Nc1ccc(F)c(Nc2nc(Nc3cnn(C)c3)ncc2-c2ccc(C(F)F)c(F)c2)c1
Response given: -1.29

Challenge: Using the record for C=CC(=O)Nc1ccc(F)c(Nc2nc(Nc3cnn(CCO)c3)ncc2-c2ccc(Cl)c(Cl)c2)c1 , state its measured log10 of GI50.
Response given: -1.10

Challenge: Give the reported log10 of GI50 for this molecule. C=CC(=O)Nc1ccc(F)c(Nc2nc(Nc3cnn(C)c3)ncc2-c2cc(F)cc(F)c2)c1
Response given: -1.51

====

Quick list: log10 GI50 per entry.
molecular target: EGFR(D770_N771insSVD) expressing Ba/F3 stable cell line (Homo sapiens, UniProt P00533, DUP768-770, cells depend on it); test: Cellular proliferation (Alamar Blue) assay, EGFR(D770_N771insSVD) Ba/F3; assay type: cell-based; conditions: 72 hr, read-out: D770 IC50
Sequence (P00533 with tags, fused parts or gaps DUP768-770): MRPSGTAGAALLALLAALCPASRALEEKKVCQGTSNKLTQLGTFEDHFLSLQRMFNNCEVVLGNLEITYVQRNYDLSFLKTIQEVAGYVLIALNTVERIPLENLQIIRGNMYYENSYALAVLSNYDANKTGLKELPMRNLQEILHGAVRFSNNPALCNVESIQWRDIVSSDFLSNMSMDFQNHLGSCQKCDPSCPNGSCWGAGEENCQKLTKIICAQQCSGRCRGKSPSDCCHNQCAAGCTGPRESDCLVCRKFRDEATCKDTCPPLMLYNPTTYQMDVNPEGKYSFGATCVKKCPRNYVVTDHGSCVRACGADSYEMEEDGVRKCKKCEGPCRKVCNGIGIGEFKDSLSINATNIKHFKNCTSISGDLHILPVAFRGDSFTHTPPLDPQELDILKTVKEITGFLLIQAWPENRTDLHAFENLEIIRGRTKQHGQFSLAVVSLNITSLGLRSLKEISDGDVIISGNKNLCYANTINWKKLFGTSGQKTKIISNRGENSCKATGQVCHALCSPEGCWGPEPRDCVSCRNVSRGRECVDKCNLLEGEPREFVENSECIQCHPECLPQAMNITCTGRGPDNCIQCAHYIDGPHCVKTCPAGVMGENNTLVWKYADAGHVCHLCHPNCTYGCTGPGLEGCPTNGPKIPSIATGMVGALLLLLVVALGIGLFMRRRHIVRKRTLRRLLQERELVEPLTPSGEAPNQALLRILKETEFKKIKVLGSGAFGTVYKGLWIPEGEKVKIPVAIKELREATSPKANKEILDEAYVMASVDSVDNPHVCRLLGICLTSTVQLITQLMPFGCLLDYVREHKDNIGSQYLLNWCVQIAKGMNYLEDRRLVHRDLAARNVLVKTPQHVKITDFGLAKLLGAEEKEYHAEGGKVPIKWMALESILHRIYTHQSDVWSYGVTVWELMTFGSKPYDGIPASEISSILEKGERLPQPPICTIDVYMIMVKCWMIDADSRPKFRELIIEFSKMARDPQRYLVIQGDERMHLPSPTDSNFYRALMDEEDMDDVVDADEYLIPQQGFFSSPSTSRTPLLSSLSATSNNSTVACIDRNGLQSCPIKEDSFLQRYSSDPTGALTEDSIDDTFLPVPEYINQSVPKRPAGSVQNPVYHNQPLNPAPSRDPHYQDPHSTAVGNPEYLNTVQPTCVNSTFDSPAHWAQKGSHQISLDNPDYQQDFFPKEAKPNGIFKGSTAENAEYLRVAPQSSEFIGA
Scale: decimal log of GI50, GI50 in nM.

Example results:
• C=CC(=O)Nc1ccc(F)c(Nc2nc(Nc3cnn(CCN(C)C)c3)ncc2-c2ccc(Cl)c(Cl)c2)c1 = 2.11
• C=CC(=O)Nc1cc(F)cc(Nc2nc(Nc3cnn(C)c3)ncc2-c2cc(F)c(Br)c(Cl)c2)c1 = 1.41
• [2H]C([2H])([2H])n1cc(Nc2ncc(-c3cc(F)cc(F)c3)c(Nc3cc(NC(=O)/C=C/CN(C)C)ccc3F)n2)cn1 = 1.92
• C=CC(=O)Nc1ccc(F)c(Nc2nc(Nc3cnn(C)c3)ncc2-c2ccc(OC(F)F)c(F)c2)c1 = 1.00
• C=CC(=O)Nc1ccc(F)c(Nc2nc(Nc3cnn(C)c3)ncc2-c2ccc(OC)c(Cl)c2)c1 = 1.95
• C=CC(=O)Nc1ccc(F)c(Nc2nc(Nc3cnn(C)c3)ncc2-c2ccc(F)c(F)c2)c1 = 1.48

Shift focus to the following entry.
Challenge: Item C=CC(=O)Nc1cccc(Nc2nc(Nc3cnn(C)c3)ncc2-c2cc(F)c(Br)c(Cl)c2)c1 : provide log10 GI50
Response given: 1.53

====

biological target: EGFR(D770_N771insSVD) expressing Ba/F3 stable cell line (Homo sapiens, UniProt P00533, DUP768-770, cells depend on it); test: Cellular proliferation (Alamar Blue) assay, EGFR(D770_N771insSVD) Ba/F3; type: cell-based; conditions: 72 hr, read-out: D770 IC50
Decision: GI50 beneath 40 nM gives Fulfilled; GI50 meeting or exceeding 40 nM gives Not fulfilled.

Check out these entries, answers already filled in.
- C=CC(=O)Nc1ccc(F)c(Nc2nc(Nc3cnn(C)c3)ncc2-c2ccc(F)c(C(F)(F)F)c2)c1: Not fulfilled
- C=CC(=O)Nc1ccc(F)c(Nc2nc(Nc3cnn(C)c3)ncc2-c2ccc(C(F)(F)F)c(F)c2)c1: Fulfilled
- C=CC(=O)Nc1ccc(F)c(Nc2nc(Nc3cnn(C)c3)ncc2-c2cccc(Br)c2F)c1: Not fulfilled
- C=CC(=O)Nc1ccc(F)c(Nc2nc(Nc3cnn(C)c3)ncc2-c2ccc(C(F)(F)F)cc2F)c1: Not fulfilled
- C=CC(=O)Nc1ccc(F)c(Nc2nc(Nc3cnn(C)c3)ncc2-c2ccc(OC)c(C(F)(F)F)c2)c1: Not fulfilled
- C=CC(=O)Nc1ccc(F)c(Nc2nc(Nc3cnn(C)c3)ncc2-c2cnc(Cl)c(F)c2)c1: Fulfilled

Now let's try a different one.
Challenge: API: query returns whether the compound falls strictly under 40 nM in GI50. Query: C=CC(=O)Nc1cccc(Nc2nc(Nc3cnn(C)c3)ncc2-c2cc(F)cc(C(F)F)c2)c1
Response given: Fulfilled

====

Quick reference: GI50 of the listed items.
target: HER2 (A775_G776insYVMA) expressing Ba/F3 stable cell line (Homo sapiens, UniProt P04626, DUP772-775, cells depend on it); experiment: Cellular proliferation (Alamar Blue) assay, HER2 (A775_G776insYVMA) Ba/F3; assay type: cell-based; settings: HER2 (A775_G776insYVMA) Ba/F3 cells; 72 hr; Alamar Blue; read-out: YVMA IC50
Could you give me the number in nM? Just the number is fine.

• C=CC(=O)Nc1ccc(F)c(Nc2nc(Nc3cnn(C)c3)ncc2-c2ccc(OC(F)F)c(F)c2)c1 [Compound 16] = 43
• Cn1cc(Nc2ncc(-c3ccc(Br)c(F)c3)c(Nc3cc(NC(=O)/C=C/CN4CCC4)ccc3F)n2)cn1 [Compound 166] = 555
• C=CC(=O)Nc1cc(F)cc(Nc2nc(Nc3cnn(C)c3)ncc2-c2cc(F)c(C(F)(F)F)c(F)c2)c1 [Compound 164] = 157

Shifting focus to the molecule that follows.
Challenge: Indicate the recorded GI50 value for this molecule: C=CC(=O)Nc1cccc(Nc2nc(Nc3cnn(C)c3)ncc2-c2ccc(OC)c(F)c2)c1 [Compound 69]
Response given: 27

====

Target: EGFR(D770_N771insSVD) expressing Ba/F3 stable cell line (Homo sapiens, UniProt P00533, DUP768-770, cells depend on it)
Assay: Cellular proliferation (Alamar Blue) assay, EGFR(D770_N771insSVD) Ba/F3
Type: cell-based
Conditions: 72 hr, read-out: D770 IC50
Description: Cell line details: • 1. EGFR(D770_N771insSVD) expressing Ba/F3 stable cell line • 2. EGFR (A767_dupASV) expressing Ba/F3 stable cell line • 3. A431 cells • 4. EGFR (H773insNPH) expressing Ba/F3 stable cell line • 5. HER2 (A775_G776insYVMA) expressing Ba/F3 stable cell line • 1. Seed cells at 5000 for A431 and 15,000 cells for Ba/F3 in 100 μL/well in complete media (for A431: DMEM with 10% FBS and for Ba/F3 cells: RPMI with 10% FBS) in 96-well tissue culture plate. […]
Property: log10(GI50) (log10 of the value in nM)
Recall that a logarithmic scale is used here: each number is log10 of GI50 in nM.

Completed entries (count: 5):
- C=CC(=O)Nc1ccc(F)c(Nc2nc(Nc3cnn(C)c3)ncc2-c2cc(F)ccc2OC)c1: 2.97
- CN(C)C/C=C/C(=O)Nc1ccc(F)c(Nc2nc(Nc3cnn(C)c3)ncc2-c2cc(F)cc(F)c2)c1 [Compound 161]: 2.34
- C=CC(=O)Nc1cc(Br)cc(Nc2nc(Nc3cnn(C)c3)ncc2-c2cc(F)cc(Cl)c2)c1: 2.00
- CN(C)C/C=C/C(=O)Nc1ccc(F)c(Nc2nc(Nc3cnn(C)c3)ncc2-c2cc(F)c(Br)c(F)c2)c1: 1.90
- C=CC(=O)Nc1ccc(F)c(Nc2nc(Nc3cnn(CCN(C)C)c3)ncc2-c2ccc(Br)c(Cl)c2)c1: 2.01

Now take the following molecule into account.
Challenge: Using known records, supply log10(GI50) for Cn1cc(Nc2ncc(-c3ccc(Br)c(F)c3)c(Nc3cc(NC(=O)/C=C/CN4CCC4)ccc3F)n2)cn1
Response given: 1.88
